Target: human CD33 F280A (human, UniProt P20138 18-364)
Sequence (P20138 18-364 F280A limits assumed): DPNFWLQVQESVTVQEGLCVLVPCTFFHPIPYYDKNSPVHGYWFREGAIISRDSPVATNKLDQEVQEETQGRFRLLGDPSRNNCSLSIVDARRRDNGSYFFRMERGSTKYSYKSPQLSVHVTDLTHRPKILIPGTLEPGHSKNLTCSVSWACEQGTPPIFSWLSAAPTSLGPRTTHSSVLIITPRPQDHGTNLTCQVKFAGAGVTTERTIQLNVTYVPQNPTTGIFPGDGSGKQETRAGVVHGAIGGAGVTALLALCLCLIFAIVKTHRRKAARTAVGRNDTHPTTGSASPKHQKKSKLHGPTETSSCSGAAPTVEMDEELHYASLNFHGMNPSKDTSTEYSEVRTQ
Test: alanine scan, flow cytometry, HEK293-T;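 further: antibody binding to each alanine-substituted CD33 mutant expressed transiently in HEK293-T, read as fluorescence minus background, mean of duplicates, relative to wild-type CD33 set as 100%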
Parameter measured: Mean % WT Binding (% WT binding)
One number for each entry, in % WT binding.

Study these solved cases before continuing.
Refmab #3 (antibody, V domains shown, The alanine scan used IgG or Fab) VH: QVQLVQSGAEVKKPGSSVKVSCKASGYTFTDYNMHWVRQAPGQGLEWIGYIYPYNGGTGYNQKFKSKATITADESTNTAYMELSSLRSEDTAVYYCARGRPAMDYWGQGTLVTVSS VL: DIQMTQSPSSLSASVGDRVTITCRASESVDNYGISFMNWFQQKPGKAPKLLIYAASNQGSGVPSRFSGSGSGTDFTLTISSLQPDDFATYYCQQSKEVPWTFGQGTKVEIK | 99
Refmab #2 (antibody, V domains shown, The alanine scan used IgG or Fab) VH: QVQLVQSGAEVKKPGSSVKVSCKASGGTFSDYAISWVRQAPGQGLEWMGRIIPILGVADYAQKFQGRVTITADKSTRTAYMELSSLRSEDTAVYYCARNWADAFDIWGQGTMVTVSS VL: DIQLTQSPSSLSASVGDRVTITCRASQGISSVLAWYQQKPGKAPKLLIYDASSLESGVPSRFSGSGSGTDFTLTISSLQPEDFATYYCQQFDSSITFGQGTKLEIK | 120
Refmab #1 (antibody, V domains shown, The alanine scan used IgG or Fab; also called hP67.6) VH: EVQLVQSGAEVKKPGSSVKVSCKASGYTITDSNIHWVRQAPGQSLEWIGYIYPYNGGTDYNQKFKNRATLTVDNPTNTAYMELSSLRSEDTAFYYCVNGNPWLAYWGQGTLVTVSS VL: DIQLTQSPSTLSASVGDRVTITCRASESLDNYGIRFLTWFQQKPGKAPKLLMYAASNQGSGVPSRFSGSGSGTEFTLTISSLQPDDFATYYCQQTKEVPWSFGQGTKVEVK | 98.4

Task: Entry under review: Refmab #4 (antibody, V domains shown, The alanine scan used IgG or Fab) VH: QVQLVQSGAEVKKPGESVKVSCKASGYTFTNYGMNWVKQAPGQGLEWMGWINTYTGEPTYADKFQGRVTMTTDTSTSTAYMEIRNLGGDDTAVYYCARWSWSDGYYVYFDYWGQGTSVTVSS VL: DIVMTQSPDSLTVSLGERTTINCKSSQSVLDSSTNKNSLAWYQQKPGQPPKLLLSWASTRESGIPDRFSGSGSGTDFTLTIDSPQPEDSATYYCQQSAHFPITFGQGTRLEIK . Reported Mean % WT Binding?
Result: 92.3
